System: soybean
Assay: Test C postemergence
Type: in vivo, Glycine max
Conditions: postemergence; 125 g ai/ha; scale 0 to 100, 0 no effect, 100 complete control
One threshold, 70, splits the recorded Plant response rating, Soybean values: lower ones are Yes, equal or higher ones are No.

CCCNC(=O)c1cc(CC)n(Cc2nc(C(F)(F)F)nn2C)n1 ... No
CCCNC(=O)c1cc(OCC)n(Cc2ccnc(OC(F)F)c2)n1 ... No
CCCNC(=O)c1cc(CC)n(Cc2ccnc(C(F)(F)F)c2)n1 ... No
CCOc1cc(C(=O)NCC(F)(F)F)nn1Cc1ccnc(OC(F)F)c1 ... No
CCc1cc(C(=O)NC2CC2)nn1Cc1ccnc(C(F)(F)F)c1 ... No
Cc1cc(C(=O)NCC(F)(F)F)nn1Cc1ccnc(C(F)(F)F)c1 ... No
CCc1cc(C(=O)NCC(F)(F)F)nn1Cc1nc(C(F)(F)F)nn1C ... Yes

Turning now to a further compound:
**Q:** # check: Plant response rating, Soybean < 70 for "CCONC(=O)c1cc(CC)n(Cc2ccnc(C(F)(F)F)c2)n1"
**A:** Yes

---

Tested on: pigweed
Experiment: Test A preemergence
Type: in vivo, Amaranthus retroflexus
Settings: preemergence, 500 g ai/ha, visual injury after approx. 10 days, 0 to 100 scale (0 no effect, 100 complete control)
Entries and their Pigweed plant response rating
Please reply with the value in numeric form only.

Consider the reported Pigweed plant response rating for these molecules:
CCCc1cc(C(=O)NC(C)C)nn1Cc1cc(C(F)(F)F)nn1C [Compound 201] ... 100
CCc1cc(C(=O)NCC(F)(F)F)nn1Cc1cc(C(F)(F)F)no1 [Compound 123] ... 100
CCNC(=O)c1cc(CC)n(Cc2cc(C(F)(F)F)nn2C)n1 [Compound 154] ... 100
CCc1cc(C(=O)NC(C)C)nn1Cc1cc(C(F)(F)F)nn1CC [Compound 120] ... 90
CCc1cc(C(=O)NCC(F)(F)F)nn1Cc1nc(C(F)(F)F)nn1C [Compound 107] ... 100

**Q:** For CCCc1cc(C(=O)NC(C)C)nn1Cc1ccnc(C(F)(F)F)c1 [Compound 186] , what is its reported Pigweed plant response rating?
**A:** 0

---

System: radish, wild
Assay: Test D postemergence
Assay type: in vivo, Raphanus raphanistrum
Conditions: Postemergence, 31 g ai/ha, scale 0 to 100
VALUE_KIND: Radish, Wild plant response rating
Please reply with the value in numeric form only.

Consider the reported Radish, Wild plant response rating for these compounds:
CCc1cc(C(=O)NC2CC2)nn1Cc1ccnc(C(F)(F)F)c1 ... 10
CCc1cc(C(=O)NCC(F)(F)F)nn1Cc1ccnc(SC(F)(F)F)c1 ... 65
O=C(NC1CC1)c1cc(CCF)n(Cc2ccnc(C(F)(F)F)c2)n1 ... 65

The record that follows has no Radish, Wild plant response rating shown yet.
**Q:** Give recorded Radish, Wild plant response rating with radish, wild for the following compound: "CCCc1cc(C(=O)NC(C)C)nn1Cc1cc(C(F)(F)F)nn1C"
**A:** 65

---

Entries and their Velvetleaf plant response rating
Tested on: velvetleaf
Assay: Test C preemergence
Assay type: in vivo, Abutilon theophrasti
Details: preemergence, 31 g ai/ha; scale 0 to 100 (0 no effect, 100 complete control), 13 to 15 days
Please reply with the value in numeric form only.

Consider the reported Velvetleaf plant response rating for these compounds:
CCCNC(=O)c1cc(CC)n(Cc2ccnc(C(F)(F)F)c2)n1 ... 75
CCONC(=O)c1cc(CC)n(Cc2ccnc(C(F)(F)F)c2)n1 ... 35
Cc1cc(C(=O)NCC(F)(F)F)nn1Cc1ccnc(C(F)(F)F)c1 ... 45

The record that follows has no Velvetleaf plant response rating shown yet.
**Q:** For "CCc1cc(C(=O)NC2CC2)nn1Cc1ccnc(C(F)(F)F)c1" , what is its reported Velvetleaf plant response rating?
**A:** 75
